assay: Total plasma concentration in mouse xenografted with human LNCaP C4-2 cells at 30 mg/kg, po once daily measured after 10 days; type: ADME, organism-based; details: time 10 day, read-out: Cp(T)

compound: COc1cc(N2CCN(CC3CCN(c4ccc(C5CCN(c6ccc(C#N)c(C(F)(F)F)c6F)CC5)cc4)CC3)CC2)cc2c1C(=O)N(C1CCC(=O)NC1=O)C2 (stereo unspecified)
concentration at 240 h: ~20 µM

###

assay: Oral bioavailability in Beagle dog at 1 mg/kg; assay type: ADME, organism-based, Canis lupus familiaris; details: in vivo
quantity_measured: bioavailability (%)

compound: COc1cc(N2CCN(CC3CCN(c4ccc(C5CCN(c6ccc(C#N)c(C(F)(F)F)c6F)CC5)cc4)CC3)CC2)cc2c1C(=O)N(C1CCC(=O)NC1=O)C2 (stereo not drawn)
readout_number: 18
--
compound: COc1cc(N2CCN(CC3CCN(c4ccc(C5CCN(c6ccc(C#N)c(C(F)(F)F)c6)CC5)cc4)CC3)CC2)cc2c1C(=O)N(C1CCC(=O)NC1=O)C2 (stereo not drawn)
readout_number: 19
--
compound: N#Cc1ccc(N2CCC(c3ccc(OCCCCN4CCN(c5ccc6c(c5)CN(C5CCC(=O)NC5=O)C6=O)CC4)cc3)CC2)cc1C(F)(F)F (stereo not drawn)
readout_number: 8
